Assay: amyloid nucleation score (Sup35N fusion, yeast selection) (log enrichment); library NNK1; higher = more nucleation; inactive = no reads after selection;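 also: zero at mode of non-aggregating sequences after 7 days selection at 30°C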
The label depends only on amyloid nucleation score: Criterion met if it is at least 0.6, Criterion not met if it is smaller.

Request: Does the substance `TLFMRVGYR` have recorded amyloid nucleation score that is 0.6 or more?
Result: Criterion met

* * *

Assay: amyloid nucleation score (Sup35N fusion, yeast selection) (log enrichment); library NNK1; higher = more nucleation; inactive = no reads after selection
Decision: amyloid nucleation score >= 0.5 yields Yes, all other cases yield No.

The following substances have reported results that may help.
RSIFSWSTR    Yes
VRHGRSYSFLRQGDFMWCGS    No
TMGVTIYGCWCDLNTSLVFG    No

Request: Threshold query (amyloid nucleation score >= 0.5) on `PVQDGSLGCQSHYCSRYCYV`
Result: No

Request: Given `ESSGTFFP` , state whether its amyloid nucleation score is at least 0.5.
Result: No

Request: Is it the case that `AGVLAV` has amyloid nucleation score reaching or exceeding 0.5?
Result: No

Request: Check the entry `TCRKTTMQRRSTHNLVKCDE` : does amyloid nucleation score equal or exceed 0.5?
Result: No

Request: Given the entry `FVVEWWLASRMGLLIRGYRR` , answer whether its amyloid nucleation score meets or surpasses 0.5.
Result: No
